- procedure_details: chemical genetic growth profiling, strain panel (AID 1159580);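 further: tested at 20 µM; growth read once vehicle control cultures reached saturation at 30 °C; 1 = growth at the plate median or of vehicle wells; lower values mean less growth of the strain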
- condition_parameters: S. cerevisiae deletion strains, growth OD, locus YJL157C, strain FAR1
Among all 5,500 compounds or so, about 2,000 (36%) were called active. Roughly 18% stayed inconclusive and do not appear here. No stated cut-off is given here; in the data, active means normalized growth mostly below about 0.91 (no sharp cut-off); inconclusive means no clear call, values can overlap the other calls; inactive means mostly above about 0.92. This is one part of the list.
Field 'call' accepts 1 (yes) (active), 0 (no) (inactive)

Reference set, count: 5
molecule	cat
Cc1oc(-c2ccc(Cl)cc2)cc1C(=O)N1CCN(c2ccc(C(F)(F)F)cn2)CC1	0 (no)
CSc1nc(Sc2n[nH]c(-c3ccccc3)n2)cc(Sc2n[nH]c(-c3ccccc3)n2)n1	0 (no)
CCCCCc1ccc(-c2nc(SCC(C)=O)n[nH]2)cc1	0 (no)
CCOC(=O)C(NC(C)=O)(Nc1ccc(F)c(Cl)c1)C(F)(F)F (stereo not drawn)	0 (no)
Cc1nc(C(F)(F)F)ccc1-c1nnc(SC(=O)c2ccc(Cl)cc2)o1	0 (no)

Asked: Per the assay record, what outcome was assigned to CC1CCc2c(sc3ncnc(Sc4ccccc4)c23)C1 (stereo not drawn) ?
Given back: 0 (no)

Asked: What outcome does the record of this test show for O=S(=O)(Nc1cc(-c2cccs2)nn1-c1ccc(I)cc1)c1cccc(F)c1 ?
Given back: 0 (no)

Asked: Look up the recorded call for CC(NC(=S)Nc1ccc(Oc2ccc(Cl)cc2)cc1)c1ccccc1 (stereo not drawn) in this test.
Given back: 0 (no)

Asked: Could you kindly confirm the outcome this assay logged for Cc1c(Cl)cccc1N=C1SCC(=O)N1Cc1ccco1 ?
Given back: 0 (no)

Asked: Name the outcome recorded for Cc1nc(C(F)(F)F)ccc1C(=O)Sc1nnc(-c2ccc(C(F)(F)F)nc2C)o1 in the assay.
Given back: 0 (no)
